- System: calcium receptor (Homo sapiens, UniProt P41180)
- Sequence (P41180 20-1078): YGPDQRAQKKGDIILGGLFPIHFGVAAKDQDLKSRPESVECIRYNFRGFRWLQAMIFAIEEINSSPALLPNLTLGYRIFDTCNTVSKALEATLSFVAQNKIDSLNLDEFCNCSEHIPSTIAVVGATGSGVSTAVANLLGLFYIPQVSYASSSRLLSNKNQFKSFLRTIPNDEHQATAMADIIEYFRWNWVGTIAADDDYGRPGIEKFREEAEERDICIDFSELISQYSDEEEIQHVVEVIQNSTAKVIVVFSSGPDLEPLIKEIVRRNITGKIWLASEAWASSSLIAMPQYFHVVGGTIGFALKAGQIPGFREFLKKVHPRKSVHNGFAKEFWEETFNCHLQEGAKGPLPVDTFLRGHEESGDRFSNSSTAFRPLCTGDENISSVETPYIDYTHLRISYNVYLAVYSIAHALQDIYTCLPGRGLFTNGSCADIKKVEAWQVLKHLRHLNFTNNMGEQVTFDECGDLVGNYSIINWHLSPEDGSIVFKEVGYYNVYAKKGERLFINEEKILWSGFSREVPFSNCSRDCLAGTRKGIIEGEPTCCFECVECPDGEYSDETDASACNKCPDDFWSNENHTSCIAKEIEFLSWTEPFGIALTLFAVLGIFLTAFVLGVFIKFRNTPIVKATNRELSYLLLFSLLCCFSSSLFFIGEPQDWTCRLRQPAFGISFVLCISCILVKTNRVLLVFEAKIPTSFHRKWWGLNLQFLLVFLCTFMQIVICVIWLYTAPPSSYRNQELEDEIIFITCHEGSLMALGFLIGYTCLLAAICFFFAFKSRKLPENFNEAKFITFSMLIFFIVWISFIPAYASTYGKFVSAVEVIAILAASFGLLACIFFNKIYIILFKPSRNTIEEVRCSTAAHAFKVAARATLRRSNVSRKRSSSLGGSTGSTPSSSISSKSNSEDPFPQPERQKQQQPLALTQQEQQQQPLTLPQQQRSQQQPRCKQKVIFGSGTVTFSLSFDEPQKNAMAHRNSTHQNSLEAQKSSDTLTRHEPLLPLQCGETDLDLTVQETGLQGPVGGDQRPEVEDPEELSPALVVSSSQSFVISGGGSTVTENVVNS
- Assay method text: Calcium receptor activity in recombinant HEK 293 4.0-7 cells (fluorescence of dye-loaded cells)
- Measurement conditions: recombinant HEK 293 4.0-7 cells containing a calcium receptor; 1 mM CaCl2, 1 mM MgCl2; fluorescence 340/510 nm
Structures can show the parent of a compound that is named as a salt.
Measured parameter: pEC50
Numbers only, as −log10 of the molar value.

CC[C@@H](N[C@H](C)c1cccc2ccccc12)c1ccc(OC)c(C)c1 [Compound 26F, hydrochloride] :: 7.82

For every item below, please supply its pEC50.
1. CCOc1ccc([C@@H](C)N[C@H](C)c2cccc3ccccc23)cc1C [Compound 26E, hydrochloride]
2. C[C@@H](N[C@H](C)c1cccc2ccccc12)c1ccc(I)cc1 [Compound 26D, hydrochloride]
3. COc1ccccc1C=CCN[C@H](C)c1cccc2ccccc12 [Compound 26J, hydrochloride]
4. CC(=Cc1ccccc1)CN[C@H](C)c1cccc2ccccc12 [Compound 26I, hydrochloride]
5. C[C@@H](NCC=Cc1ccccc1)c1cccc2ccccc12 [Compound 26H, hydrochloride]

OUT:
1. 7.11
2. 7.33
3. 7.33
4. 6.90
5. 7.44
